- system.name: Muscarinic acetylcholine receptor M2 (Rattus norvegicus, UniProt P10980)
- Sequence (P10980 whole entry): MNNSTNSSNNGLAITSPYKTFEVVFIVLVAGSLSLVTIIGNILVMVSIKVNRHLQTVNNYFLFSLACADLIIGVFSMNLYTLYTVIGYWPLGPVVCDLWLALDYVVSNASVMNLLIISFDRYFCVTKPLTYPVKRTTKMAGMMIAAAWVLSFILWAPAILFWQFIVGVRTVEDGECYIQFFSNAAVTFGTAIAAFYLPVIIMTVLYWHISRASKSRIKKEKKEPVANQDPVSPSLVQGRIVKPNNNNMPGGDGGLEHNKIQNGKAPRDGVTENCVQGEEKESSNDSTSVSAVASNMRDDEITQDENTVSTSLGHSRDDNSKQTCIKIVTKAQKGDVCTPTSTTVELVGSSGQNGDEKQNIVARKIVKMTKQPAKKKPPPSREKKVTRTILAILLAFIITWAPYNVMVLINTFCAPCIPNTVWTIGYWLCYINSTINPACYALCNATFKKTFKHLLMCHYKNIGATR
- measurement.protocol: Binding affinity against M2 receptor in rat brainstem cells using radioligand [3H]quinuclidinyl benzilate ([3H]QNB)
pKd: −log10 of the molar value.
Entries and their measured pKd follow.
property: pKd

compound=C[C@@H]1OC[C@H]2C[C@H]3CCCC[C@@H]3[C@@H](/C=C/[C@H]3CCC[C@H](C)N3C)[C@H]21 property=pKd reading=6.45
compound=C[C@@H]1O[C@H](O)[C@H]2C[C@H]3CCCC[C@@H]3[C@@H](/C=C/[C@H]3CCC[C@H](C)N3C)[C@H]21 property=pKd reading=7.02
compound=C[C@H](O)[C@H]1[C@@H](CO)C[C@H]2CCCC[C@@H]2[C@H]1/C=C/[C@H]1CCC[C@H](C)N1C property=pKd reading=6.53
compound=CC(=O)O[C@H]1O[C@@H](C)[C@@H]2[C@H](/C=C/[C@H]3CCC[C@H](C)N3C)[C@H]3CCCC[C@@H]3C[C@H]12 property=pKd reading=7.05
compound=CC(=O)OC[C@H]1C[C@H]2CCCC[C@@H]2[C@@H](/C=C/[C@H]2CCC[C@H](C)N2C)[C@H]1[C@H](C)OC(C)=O property=pKd reading=6.60
compound=C[C@@H]1O[C@H](OC(=O)C(C)(C)C)[C@H]2C[C@H]3CCCC[C@@H]3[C@@H](/C=C/[C@H]3CCC[C@H](C)N3C)[C@H]21 property=pKd reading=6.33
compound="C[C@@H]1OC(=O)[C@H]2C[C@H]3CCCC[C@@H]3[C@@H](/C=C/[C@H]3CCC[C@H](C)N3C)[C@@H]12 [HIMBACINE]" property=pKd reading=8.00

----------
- system.name: Muscarinic acetylcholine receptors; M1 & M2 (Homo sapiens) (UniProt P11229+P08172)
- measurement.protocol: Ratio of binding affinities towards M2 receptor to M1 receptor
- Type: protein assay
Entries and their measured Selectivity follow.
property: Selectivity

compound=C[C@@H]1OC[C@H]2C[C@H]3CCCC[C@@H]3[C@@H](/C=C/[C@H]3CCC[C@H](C)N3C)[C@H]21 system_name="Muscarinic acetylcholine receptors; M1 & M2 (Homo sapiens) (UniProt P11229+P08172)" reading=0.5
compound="C[C@@H]1OC(=O)[C@H]2C[C@H]3CCCC[C@@H]3[C@@H](/C=C/[C@H]3CCC[C@H](C)N3C)[C@@H]12 [HIMBACINE]" system_name="Muscarinic acetylcholine receptors; M1 & M2 (Homo sapiens) (UniProt P11229+P08172)" reading=14.8
compound=C[C@@H]1O[C@H](OC(=O)C(C)(C)C)[C@H]2C[C@H]3CCCC[C@@H]3[C@@H](/C=C/[C@H]3CCC[C@H](C)N3C)[C@H]21 system_name="Muscarinic acetylcholine receptors; M1 & M2 (Homo sapiens) (UniProt P11229+P08172)" reading=5.4
compound=C[C@H](O)[C@H]1[C@@H](CO)C[C@H]2CCCC[C@@H]2[C@H]1/C=C/[C@H]1CCC[C@H](C)N1C system_name="Muscarinic acetylcholine receptors; M1 & M2 (Homo sapiens) (UniProt P11229+P08172)" reading=1.7
